The measurements presented in this section are drawn from patent US4792614A.

# targetOfAssay: HMG--CoA reductase (Rattus norvegicus, UniProt P51639)
# Construct: the microsomal fraction is isolated by differential ultracentrifugation to obtain HMG--CoA reductase enzyme
# Sequence (P51639 1-887): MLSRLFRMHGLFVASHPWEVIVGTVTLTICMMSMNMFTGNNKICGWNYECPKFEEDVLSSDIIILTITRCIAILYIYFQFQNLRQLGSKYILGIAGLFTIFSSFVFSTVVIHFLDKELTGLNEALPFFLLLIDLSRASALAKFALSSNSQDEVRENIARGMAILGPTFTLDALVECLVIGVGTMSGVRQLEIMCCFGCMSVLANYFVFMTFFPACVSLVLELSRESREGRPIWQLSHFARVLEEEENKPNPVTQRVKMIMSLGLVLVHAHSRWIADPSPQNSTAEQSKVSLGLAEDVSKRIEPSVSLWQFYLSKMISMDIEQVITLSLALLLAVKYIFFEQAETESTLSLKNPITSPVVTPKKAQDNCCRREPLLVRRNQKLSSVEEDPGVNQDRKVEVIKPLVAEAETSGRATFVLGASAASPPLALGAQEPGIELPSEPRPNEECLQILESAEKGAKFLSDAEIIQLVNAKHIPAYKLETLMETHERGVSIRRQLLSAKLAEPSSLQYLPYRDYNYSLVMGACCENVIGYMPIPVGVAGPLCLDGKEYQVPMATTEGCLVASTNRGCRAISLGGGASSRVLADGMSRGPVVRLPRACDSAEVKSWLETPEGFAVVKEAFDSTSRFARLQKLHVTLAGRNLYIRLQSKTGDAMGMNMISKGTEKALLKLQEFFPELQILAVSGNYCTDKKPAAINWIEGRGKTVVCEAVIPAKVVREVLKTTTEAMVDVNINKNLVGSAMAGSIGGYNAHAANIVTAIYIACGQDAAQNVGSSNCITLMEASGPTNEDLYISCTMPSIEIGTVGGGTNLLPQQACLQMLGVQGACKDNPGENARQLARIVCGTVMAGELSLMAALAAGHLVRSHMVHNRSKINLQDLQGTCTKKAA
# test: Inhibition of HMG-CoA reductase (microsomal enzyme from rat liver, [14C] HMG-CoA reduction to mevalonolactone)
# measurementContext: rat liver microsomal fraction; compound tested as the dihydroxy sodium carboxylate, 10^-3 to 10^-6 M; 20 minute incubation at 37° C.
pIC50: −log10 of the molar value.
Known pIC50 of a selection of compounds
measurementType: pIC50

[[record]]
structurestring = "COC(=O)C[C@@H](O)C[C@H](O)/C=C/c1ccc(-c2ccc(C(F)(F)F)cc2[N+](=O)[O-])o1"
measurementtype = "pIC50"
measvalue = 4.00

[[record]]
structurestring = "COC(=O)C[C@@H](O)C[C@H](O)/C=C/c1oc(C)cc1-c1ccc(F)cc1"
measurementtype = "pIC50"
measvalue = 4.21

[[record]]
structurestring = "COC(=O)C[C@@H](O)C[C@H](O)/C=C/c1oc(C)cc1-c1ccccc1"
measurementtype = "pIC50"
measvalue = 4.00

[[record]]
structurestring = "COC(=O)C[C@@H](O)C[C@H](O)/C=C/c1occc1-c1ccc(F)cc1"
measurementtype = "pIC50"
measvalue = 4.25

